Values compiled from ChEMBL document CHEMBL1127376.

Biological target: Thromboxane A2 receptor (Homo sapiens)
Sequence (P21731 whole entry): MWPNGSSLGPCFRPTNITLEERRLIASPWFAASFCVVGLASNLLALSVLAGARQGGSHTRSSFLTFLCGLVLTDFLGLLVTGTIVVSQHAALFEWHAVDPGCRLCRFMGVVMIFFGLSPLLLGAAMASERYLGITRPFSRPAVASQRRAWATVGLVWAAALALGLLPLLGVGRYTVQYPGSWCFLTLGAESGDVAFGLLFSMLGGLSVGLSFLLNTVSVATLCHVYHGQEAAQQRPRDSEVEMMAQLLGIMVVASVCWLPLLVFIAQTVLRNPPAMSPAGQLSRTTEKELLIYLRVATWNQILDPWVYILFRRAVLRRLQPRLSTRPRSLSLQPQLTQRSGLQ
pIC50: −log10 of the molar value.
Param threshold (7) applies to pIC50; output 1 when value >= threshold, 0 when value < threshold.

Examples with answers:
O=C(O)CCCCO/N=C(/c1ccccc1)C(Cc1ccc(Cl)cc1)n1ccnc1 (stereo unspecified) = 0
O=C(O)/C=C/c1ccc(Cn2ccnc2)cc1 = 0
O=C(O)CCCCO/N=C(/Cn1ccnc1)C1CCCCC1 = 0

// query Given the entry O=C(O)CCCCO/N=C(\C1CCCCC1)C(Cc1ccc(C(F)(F)F)cc1)n1ccnc1 (stereo unspecified) , answer whether its pIC50 meets or surpasses 7.
// result 1

// query Given the entry O=C(O)CCCCO/N=C(\C1CCCCC1)C(Cc1cnccn1)n1ccnc1 (stereo unspecified) , answer whether its pIC50 meets or surpasses 7.
// result 0

// query Given the entry O=C(O)CCCCO/N=C(\C1CCCCC1)C(Cc1ccc(F)cc1)n1ccnc1 (stereo unspecified) , answer whether its pIC50 meets or surpasses 7.
// result 1

// query Given the entry O=C(O)CCCO/N=C(/Cn1ccnc1)C1CCCCC1 , answer whether its pIC50 meets or surpasses 7.
// result 0

// query Given the entry O=C(O)CCCCO/N=C(\C1CCCCC1)C(Cc1cccc(F)c1)n1ccnc1 (stereo unspecified) , answer whether its pIC50 meets or surpasses 7.
// result 1

// query Given the entry O=C(O)CCCO/N=C(\Cn1ccnc1)c1ccccc1 , answer whether its pIC50 meets or surpasses 7.
// result 0

// query Given the entry O=C(O)CCCCO/N=C(\C1CCCCC1)C(Cc1ccccc1F)n1ccnc1 (stereo unspecified) , answer whether its pIC50 meets or surpasses 7.
// result 0

* * *

target: Thromboxane-A synthase (Rattus norvegicus); test: Tested for in vitro inhibition of TxA synthase in rat whole blood at 1 uM; assay type: tissue-based
Param threshold (20%) applies to inhibition; output rule met when value >= threshold, rule not met when value < threshold.

Examples with answers:
O=C(O)CCCO/N=C(\Cn1ccnc1)c1ccccc1 = rule not met
O=C(O)CCCCCO/N=C(\Cn1ccnc1)c1ccccc1 = rule not met
O=C(O)CCCO/N=C(/Cn1ccnc1)C1CCCCC1 = rule met
O=C(O)CCCCCO/N=C(\Cn1ccnc1)C1CCCCC1 = rule not met
O=C(O)CCCO/N=C(\Cn1ccnc1)C1CCCCC1 = rule not met

Now look at this entry.
// query Given the entry O=C(O)CCCCO/N=C(\Cn1ccnc1)c1cccnc1 , answer whether its inhibition meets or surpasses 20%.
// result rule met

* * *

Biological target: UniProt:P49430
Sequence (P49430 whole entry): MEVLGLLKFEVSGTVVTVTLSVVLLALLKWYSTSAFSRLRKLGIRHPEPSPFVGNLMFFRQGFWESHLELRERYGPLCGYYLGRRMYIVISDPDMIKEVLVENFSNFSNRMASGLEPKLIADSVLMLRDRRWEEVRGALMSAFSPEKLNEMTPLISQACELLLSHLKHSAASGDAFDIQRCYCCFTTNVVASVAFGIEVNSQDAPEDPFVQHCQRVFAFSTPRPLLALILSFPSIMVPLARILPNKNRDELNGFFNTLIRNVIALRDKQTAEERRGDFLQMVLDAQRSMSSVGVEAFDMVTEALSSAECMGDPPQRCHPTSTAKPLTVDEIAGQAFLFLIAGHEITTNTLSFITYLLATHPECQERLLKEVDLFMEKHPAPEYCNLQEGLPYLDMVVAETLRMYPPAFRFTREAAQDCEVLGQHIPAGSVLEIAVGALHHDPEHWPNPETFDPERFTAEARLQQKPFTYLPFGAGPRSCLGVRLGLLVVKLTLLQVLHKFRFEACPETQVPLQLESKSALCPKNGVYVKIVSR
Assay: In vitro inhibition of thromboxane-A2 synthase in rat whole blood during clotting at 37 degrees Centigrade
Catalogue of molecules with associated IC50
Quick note: give the figure in nM, leave out the unit.

# count of solved cases: 2
Cc1ccc(CC(/C(=N/OCCCCC(=O)O)C2CCCCC2)n2ccnc2)cc1 (stereo unspecified) = 140
O=C(O)CCCCO/N=C(\C1CCCCC1)C(Cc1cnccn1)n1ccnc1 (stereo unspecified) = 70

// query # returns recorded IC50 (system: UniProt:P49430) for O=C(O)CCCCO/N=C(\C1CCCCC1)C(Cc1cccc(F)c1)n1ccnc1 (stereo unspecified)
// result 270
